TARGET UNDER TEST: T1, monkey GPC3-His protein (monkey)
T1 construct: Bought protein; also called monkey GPC3 protein
ASSAY REMARKS: ELISA, monkey GPC3-His coated; antibody 0.53 nM
RECORDED METRIC: OD450 nm

1. hAb003LH2L1b (antibody, human IgG1, V domains shown, Humanized F2.154.1, H2+L1b) VH: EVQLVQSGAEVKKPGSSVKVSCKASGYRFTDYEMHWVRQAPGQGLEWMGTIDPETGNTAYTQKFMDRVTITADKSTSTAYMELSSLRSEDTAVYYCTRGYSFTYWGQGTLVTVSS VL: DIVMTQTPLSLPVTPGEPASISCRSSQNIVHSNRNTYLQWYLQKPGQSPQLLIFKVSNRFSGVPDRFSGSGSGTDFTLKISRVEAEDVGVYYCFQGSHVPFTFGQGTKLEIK ... 2.3
2. hAb005LH1L1b (antibody, human IgG1, V domains shown, Humanized F3.54.12, H1+L1b) VH: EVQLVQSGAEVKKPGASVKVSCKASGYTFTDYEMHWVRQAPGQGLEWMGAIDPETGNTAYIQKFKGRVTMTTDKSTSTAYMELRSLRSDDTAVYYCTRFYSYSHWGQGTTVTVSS VL: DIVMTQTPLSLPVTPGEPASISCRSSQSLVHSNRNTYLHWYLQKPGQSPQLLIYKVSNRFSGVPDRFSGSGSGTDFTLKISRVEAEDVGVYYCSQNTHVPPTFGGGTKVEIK ... 1.09
3. hAb007LH2L1b (antibody, human IgG1, V domains shown, Humanized F3.81.19, H2+L1b) VH: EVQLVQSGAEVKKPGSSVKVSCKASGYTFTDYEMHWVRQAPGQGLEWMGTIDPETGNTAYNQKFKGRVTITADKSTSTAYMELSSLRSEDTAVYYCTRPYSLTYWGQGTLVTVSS VL: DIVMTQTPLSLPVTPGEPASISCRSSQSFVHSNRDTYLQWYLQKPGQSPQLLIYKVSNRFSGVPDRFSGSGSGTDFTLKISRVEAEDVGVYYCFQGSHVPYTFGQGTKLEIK ... 2.09
4. hAb001H1L1 (antibody, human IgG1, V domains shown, Humanized F2.169.2, H1+L1) VH: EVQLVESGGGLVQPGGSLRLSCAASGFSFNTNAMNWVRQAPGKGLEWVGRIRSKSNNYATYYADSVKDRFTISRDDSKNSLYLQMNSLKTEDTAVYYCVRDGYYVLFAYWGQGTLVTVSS VL: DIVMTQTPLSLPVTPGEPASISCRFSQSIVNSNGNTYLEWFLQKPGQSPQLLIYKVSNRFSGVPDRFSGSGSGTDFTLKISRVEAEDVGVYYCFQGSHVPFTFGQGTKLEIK ... 2.46
5. hAb001H2L1a (antibody, human IgG1, V domains shown, Humanized F2.169.2, H2+L1a) VH: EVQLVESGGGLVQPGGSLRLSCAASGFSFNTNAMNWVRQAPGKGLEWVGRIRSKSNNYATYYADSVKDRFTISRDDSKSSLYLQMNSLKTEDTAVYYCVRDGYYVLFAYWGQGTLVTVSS VL: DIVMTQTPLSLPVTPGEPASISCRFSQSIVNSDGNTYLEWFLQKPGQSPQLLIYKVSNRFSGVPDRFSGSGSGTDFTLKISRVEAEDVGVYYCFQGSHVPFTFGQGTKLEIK ... 2.02
